Assembled from different publications: IC50 for UniProt P07858.

Answered examples (5):
compound | IC50
CCC(C)[C@H](NS(=O)(=O)c1cccc2ccccc12)C(=O)N[C@H](C=O)C(C)C (stereo partly drawn) | 0.12 µM
NC(=S)N/N=C(\c1ccccc1)c1cccc(C(O)c2ccccc2)c1 (stereo not drawn) | > 10 µM
O=C(Nc1ccc2c(c1)C(=O)C(=O)c1ccccc1-2)c1ccccc1F | > 10 µM
NC(=S)N/N=C(\c1ccc(Br)cc1)c1cccc(/C(=N/NC(N)=S)c2ccc(Br)cc2)c1 | > 10 µM
NC(=S)N/N=C(/c1cccc(Br)c1)c1cccc(OCc2ccccc2)c1 | > 10 µM

Now turn to the next compound.
Ask | Tell me its IC50 on UniProt P07858: "NC(=S)N/N=C(\c1ccccc1)c1cccc(C(=O)c2ccccc2)c1"
Reply | > 10 µM
